Test: blockers of RIG-like receptor reporter activation – cell-based, Sendai virus stimulus, luciferase, 10K MLSCN set, TLR/RLR signaling modifier project, primary screen (AID 602276);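 further: firefly luciferase from ISG56 promoter only with Renilla not read in this screen; 0% = Sendai virus plus DMSO and 100% = medium plus DMSO without virus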
Conditions: HEK293 RL24 IRF3 luciferase reporter, at 10 µM, hits give high values
Active and inactive are the calls of the source.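 How the source made its calls: active means inhibition at or above 50% at 10 µM; inactive means inhibition below 50%.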
assay-endpoint: inhibition

Some entries whose results are on file:
COc1ccc(S(=O)(=O)Nc2ccccc2SC)cc1C; 12.4% (inactive)
COCCn1nnnc1SCC(=O)N1CCCCC1; 17.3% (inactive)
O=C(CN1CCN(Cc2ccc3c(c2)OCO3)CC1)N1CCc2[nH]c3ccc(F)cc3c2C1; 12% (inactive)

// switching to the query compound
[in] Look up inhibition: `O=C(CSc1nnc(-c2ccccc2)o1)NC1CCCCC1`
[out] 5.13% (inactive)
